# Tested on: UACC-62 melanoma
# protocol_notes: NCI-60 one-dose screen, 48 h (100 = growth as untreated, 0 = no growth, -100 = all killed)
# particulars: 10 µM unless noted
# Protocol: Growth inhibition of the UACC-62 human tumor cell line is measured as a screen for anti-cancer activity. Cells are grown in 96 well plates and exposed to the test compound for 48 hours. Compounds are tested at a single concentration, which is 10^-5 M for most compounds. The reported endpoint is percent growth (GI% or GIPRCNT), where numbers from 0 - 100% represent growth inhibition, and numbers from -100% - 0 represent cell death. For example, a value of 40 represents 60% growth inhibition. […]
Compounds without any hit were thinned out: in the full panel of roughly 83,000, 20% have a hit.
# label = Yes if growth < 90% else No

compound: Cc1ccc(Nc2cc(Cl)c([N+](=O)[O-])cc2[N+](=O)[O-])cc1
group_label: Yes

compound: O=C(/C=C/c1cn(-c2ccccc2)nc1-c1ccccc1)OCc1cn(-c2cccc([N+](=O)[O-])c2)nn1
group_label: Yes

compound: CCCCc1nc(Cl)c(C2CC(c3ccc(S(N)(=O)=O)cc3)=NN2c2ccc(C#N)cc2)[nH]1 (centres undefined)
group_label: Yes

query: Please determine if `O=C1/C(=C/c2cc(F)cc(F)c2)Cc2cc(F)cc(F)c21` is below 90% in terms of growth.
result: Yes

query: Please determine if CC(=O)NC1C(O[C@H]2C[C@H]3[C@@H]4CC=C5C[C@@H](O)CC[C@]5(C)[C@H]4CC[C@]3(C)[C@H]2[C@H](C)C(=O)CCC(C)C)OCC(O)C1O (some centres undefined) is below 90% in terms of growth.
result: Yes

query: Please determine if `O=c1c2cc(Cl)ccc2oc2ccc(OCCCCCN3CCCCC3)cc12` is below 90% in terms of growth.
result: Yes

###

# System: UACC-62 melanoma
# protocol_notes: NCI-60 one-dose screen, 48 h (100 = growth as untreated, 0 = no growth, -100 = all killed)
# particulars: 10 µM unless noted
# Experimental: Growth inhibition of the UACC-62 human tumor cell line is measured as a screen for anti-cancer activity. Cells are grown in 96 well plates and exposed to the test compound for 48 hours. Compounds are tested at a single concentration, which is 10^-5 M for most compounds. The reported endpoint is percent growth (GI% or GIPRCNT), where numbers from 0 - 100% represent growth inhibition, and numbers from -100% - 0 represent cell death. For example, a value of 40 represents 60% growth inhibition. […]
The panel holds about 83,000 compounds, 20% with a hit somewhere; the sample as a whole holds those more often.
# label = 1 if growth < 90% else -1

These recorded examples may help you get a feel for the data.
molecule: O=C(Nc1cccc(N=Cc2c(O)ccc3ccccc23)c1)c1ccccc1
tested_target: UACC-62 melanoma
group_label: -1
--
molecule: N=C(N)c1ccc(NCCNc2ccc(C(=N)N)cc2)cc1
tested_target: UACC-62 melanoma
group_label: 1
--
molecule: CC(C)c1nc2ccccc2n1CC(=O)N/N=C/c1cccc(O)c1
tested_target: UACC-62 melanoma
group_label: 1
--
molecule: CO[C@H](C(=O)[C@@H](O)[C@@H](C)O)[C@@H]1Cc2cc3cc(O[C@H]4C[C@@H](O[C@H]5C[C@@H](O)[C@H](O)C(C)O5)[C@H](O)C(C)O4)c(C)c(O)c3c(O)c2C(=O)[C@H]1O[C@H]1C[C@@H](O[C@H]2C[C@@H](O[C@H]3C[C@](C)(O)C(=O)C(C)O3)[C@@H](O)C(C)O2)[C@H](O)C(C)O1 (stereo partly drawn)
tested_target: UACC-62 melanoma
group_label: 1
--
molecule: CN(C)N1C(=O)c2c(Cl)c(Cl)c(Cl)c(Cl)c2C1=O
tested_target: UACC-62 melanoma
group_label: -1

Kindly review the next molecule as well.
query: Please determine if `COc1cc2ncnc(Nc3ccc(S(=O)(=O)Nc4cc(C)on4)cc3)c2cc1OCCCN1CCN(c2ccc([N+](=O)[O-])cc2)CC1` is below 90% in terms of growth.
result: -1

###

# System: NCI-H460 lung
# protocol_notes: NCI-60 one-dose screen, 48 h
# particulars: 10 µM unless noted
Compounds without any hit were thinned out: in the full panel of roughly 83,000, 20% have a hit. Calls of active or inactive are those of the source. How the source made its calls: active means growth percent below 10; inactive means the rest.
Write down one outcome, taken from YES = active, NO = inactive

molecule: N=C(N)c1ccc(NCCNc2ccc(C(=N)N)cc2)cc1
group_label: NO

molecule: CCC1N=C(N)N=C(N)N1c1ccc(Cl)cc1 (centres undefined)
group_label: NO

molecule: CN(C)c1nc(-c2cccs2)n2nc(-c3ccc(Cl)cc3)cc2n1
group_label: YES

molecule: NC(N)=N/N=C/c1ccc(Cl)cc1
group_label: NO

molecule: C=C(C)[C@@H]1CC[C@]2(C(=O)O)CC[C@]3(C)[C@H](CC[C@@H]4[C@@]5(C)C[C@@H](CC#Cc6ccc(C(C)=O)s6)[C@H](O)C(C)(C)[C@@H]5CC[C@]43C)[C@@H]12
group_label: NO

query: What is the recorded call for this molecule in the test? `CSC1=N/C(=C\c2cccc(OCc3ccc(Cl)cc3)c2)C(=O)N1`
result: NO

query: What is the recorded call for this molecule in the test? `CCCCCCCCCCCCCCCC1=NCCN1`
result: NO

query: What is the recorded call for this molecule in the test? `CN1C2CCC1/C(=C\c1ccc(Cl)cc1)C(=O)/C2=C/c1ccc(Cl)cc1`
result: NO

query: What is the recorded call for this molecule in the test? `CC(=O)Nc1ccc(/C=N/N2CCCCCC2)cc1`
result: NO

query: What is the recorded call for this molecule in the test? `N/C(=N\O)c1ncc(-c2ccc(C(F)(F)F)cc2)c(NC2CCCCCC2)n1`
result: YES

query: What is the recorded call for this molecule in the test? `Nc1c(C(=O)C[C@@H](N)CO)ccc2c1C(=O)CCO2`
result: NO

query: What is the recorded call for this molecule in the test? `CCOC(=O)N1C2CCC(C2)N1C(=O)OCC`
result: NO

query: What is the recorded call for this molecule in the test? `COc1ccccc1CNCCCN1C(=O)c2ccc3c4c(ccc(c24)C1=O)C(=O)N(CCCOCCCCOCCCN)C3=O`
result: YES

query: What is the recorded call for this molecule in the test? `O=C1Nc2ccccc2/C1=C\c1nc(C2CCN(S(=O)(=O)c3ccc(F)cc3)CC2)n2ccccc12`
result: NO

###

# Tested on: SNB-75 CNS
# protocol_notes: NCI-60 one-dose screen, 48 h (100 = growth as untreated, 0 = no growth, -100 = all killed)
# particulars: 10 µM unless noted
About 83,000 compounds went through this panel and 20% of them were active in at least one assay; those are over-represented in the sample as a whole.
property_name: growth (%)
Write the answer as a number in %, unit excluded.

Reference set, count: 3
compound: CC(C)(C)c1ccc(C(=O)Nc2sc3cc(O)ccc3c2C(N)=O)cc1
property_name: growth
result_number: 95.9
//
compound: CCCCCCCCCCCC1=NC(C)(C)CN1CC(C)O (configuration not stated)
property_name: growth
result_number: 61.8
//
compound: Clc1ccc(C2=NN[C@H](c3cn(-c4ccccc4)nc3-c3ccccc3)C2)cc1
property_name: growth
result_number: 41

growth reading for CC(C)CC1NC(=O)C(CC(C)C)N(CO)C1=O (configuration not stated) : 93.4

growth reading for `Nc1nc(NC2CC2)cc(-c2cccc(Cl)c2Cl)n1` : 39.2

growth reading for CC(=O)N1N=C(C2C(=O)N(C)C(=O)N(C)C2=O)CC1c1ccccc1C(=O)O (configuration not stated) : 95

growth reading for `COc1cc(Nc2ncccc2/C=C/C(=O)c2cc(OC)c(OC)c(OC)c2)cc(OC)c1OC` : 67.9

growth reading for `COc1nccc2c(Sc3ccccc3)nc(N)nc12` : 84.5

growth reading for Oc1c(C(Nc2cccc3ccccc23)c2ccccc2)ccc2cccnc12 (configuration not stated) : 72.2

growth reading for Cc1ccc(C(CN(C)C)C(=O)c2ccccc2)cc1 (configuration not stated) : 54.1

growth reading for `O=C1Nc2ccccc2/C1=C\c1nc(C2CCN(S(=O)(=O)c3ccc(F)cc3)CC2)n2ccccc12` : -10.4

growth reading for `O=C(C(=O)N1CCCC1)c1cn(CCCn2cc(C(=O)C(=O)N3CCCC3)c3cc(Br)ccc32)c2ccc(Br)cc12` : 46.3

growth reading for `O=C1/C=C/[C@@H](O)[C@@H]2C[C@@H](O)C[C@H]2/C=C/CCC[C@H]([C@@H](O)CO)O1` : 84

growth reading for `S=C(Cc1ccccc1)N1CCN(c2ccccc2Cl)CC1` : 96.8

growth reading for O=C1OCC2=C1C(c1ccccc1)c1cc3c(cc1N2CCO)CCC3 (configuration not stated) : 64.4

growth reading for `Cc1ccc(NC(=O)c2sc3nc4c(cc3c2N)C(=O)CCC4)cc1Cl` : 110

growth reading for `COc1ccc(CNc2c3ccccc3nc3ccc(OC)cc23)cc1` : 27.4

growth reading for `CCN(CC)c1ccc(/C=N/NC(=O)c2ccc(S(C)(=O)=O)cc2)c(O)c1` : 55.2

growth reading for `C=C(C)[C@@H]1CC[C@]2(C(=O)NS(=O)(=O)c3ccccc3)CC[C@]3(C)[C@H](CC[C@@H]4[C@@]5(C)CC[C@H](OC(=O)NS(=O)(=O)c6ccccc6)C(C)(C)[C@@H]5CC[C@]43C)[C@@H]12` : 45.3

growth reading for `Fc1cc(-c2cnc3nonc3n2)c(Cl)cc1Cl` : 99.9

growth reading for `Fc1ccc(-c2cnc3nonc3n2)c(F)c1` : 96.4

growth reading for `CCS(=O)(=O)Nc1cccc(Nc2c3cccc(C)c3nc3c(C)cccc23)c1OC` : 21.7
